# Tested on: Mus musculus
# experimentNotes: Toxicity in CD-1 mouse allografted with mouse S180A cells assessed as change in body weight at maximum effective dose administered qd for 6 days (reference value: 23.2%)
# Format: organism-based
# assaySetup: 144 h
Please respond with reported Activity for every item in the list.

Q: I'd like to know its Activity. The compound in question is O=S(=O)(N/N=C/c1c2ccccc2cc[n+]1[O-])c1ccccc1
Ans: 1.6%

Q: I'd like to know its Activity. The compound in question is CS(=O)(=O)N/N=C/c1cccc[n+]1[O-]
Ans: 20%

Q: I'd like to know its Activity. The compound in question is Cc1ccc(S(=O)(=O)N/N=C/c2ccc[n+]([O-])c2)cc1
Ans: 0%

Q: I'd like to know its Activity. The compound in question is Cc1ccc(S(=O)(=O)N/N=C/c2ccncc2)cc1
Ans: -0.9%

Q: I'd like to know its Activity. The compound in question is O=S(=O)(Cc1ccccc1)N/N=C/c1cccc[n+]1[O-]
Ans: -0.3%

Q: I'd like to know its Activity. The compound in question is O=S(=O)(N/N=C/c1cccc[n+]1[O-])c1ccccc1
Ans: -5.2%

Q: I'd like to know its Activity. The compound in question is Cc1ccc(S(=O)(=O)N/N=C/c2ccccn2)cc1
Ans: 20.1%

Q: I'd like to know its Activity. The compound in question is CS(=O)(=O)N/N=C/c1ccncc1
Ans: 18.6%

Q: I'd like to know its Activity. The compound in question is Cc1ccc(C(=O)N/N=C/c2ccccn2)cc1
Ans: 17.4%

Q: I'd like to know its Activity. The compound in question is Cc1ccc(S(=O)(=O)N/N=C/c2ccccc2[N+](=O)[O-])cc1
Ans: 2.1%

Q: I'd like to know its Activity. The compound in question is Cc1ccc(S(=O)(=O)N/N=C/c2cc[n+]([O-])cc2)cc1
Ans: 17.7%

Q: I'd like to know its Activity. The compound in question is O=S(=O)(N/N=C/c1ccc2ccccc2[n+]1[O-])c1ccccc1
Ans: 2.6%

* * *

Please respond with reported Activity for every item in the list.
# Tested on: Mus musculus
# experimentNotes: Toxicity in CD-1 mouse allografted with mouse S180A cells assessed as change in body weight at maximum effective dose administered qd for 6 days (reference value: 23.2%)
# Format: organism-based
# assaySetup: 144 h
Reply numerically in %, unit not repeated.

Q: I'd like to know its Activity. The compound in question is Cc1ccc(S(=O)(=O)N/N=C/c2ccccc2)cc1
Ans: 15.1

Q: I'd like to know its Activity. The compound in question is Cc1ccc(S(=O)(=O)N/N=C/c2cccc[n+]2[O-])cc1
Ans: -8

Q: I'd like to know its Activity. The compound in question is O=S(=O)(Cc1ccccc1)N/N=C/c1ccncc1
Ans: -3.3

Q: I'd like to know its Activity. The compound in question is Cc1ccc(S(=O)(=O)N/N=C/c2cccnc2)cc1
Ans: 12.6

Q: I'd like to know its Activity. The compound in question is Cc1ccc(C(=O)N/N=C/c2cccc[n+]2[O-])cc1
Ans: 10.2
